Please respond with reported % Inhibition for every item in the list.
# Test system: P. falciparum stage V gametocytes
# Parameters: BacTiter-Glo ATP luminescence viability of purified stage V gametocytes in 384-well plates, per cent inhibition versus DMSO
# CONDITION_SET: 48 h, 5 µM; inhibitor
Out of some 13,000 compounds screened, about 3,200 (25%) showed an effect of 50% or more. Some of the results follow.
State the value with its unit after it.

COc1ccc(CNc2nccc3ccc(-c4ccc(N)nc4)cc23)cc1 :: 62.64%

Please state, for each entry, its recorded % Inhibition.
1. OC(CNc1ccnc(Nc2cccc(Cl)c2)n1)c1cccc(F)c1 (stereo not drawn)
2. Cn1c(/C=C/C(=O)NC2CCC(CCN3CCc4ccc(C#N)cc4CC3)CC2)cc2ccccc21 (stereo not drawn)
3. NCCCCNc1cc(-c2ccnc(Nc3cccc(Cl)c3)n2)ccn1
4. COc1ccc(CNc2ccnc3cc(OC)ccc23)cc1
5. OC(CNc1ccnc(Nc2cccc(Cl)c2)n1)c1cccc(C(F)(F)F)c1 (stereo not drawn)
6. COc1ccc(CNc2nccc3ccc(-c4ccc5nccn5c4)cc23)cc1
7. COc1ccc(Nc2nccc(-c3ccc4ccnc(NCCCCN)c4c3)n2)cc1

Reply text:
1: -70.46%; 2: -68.7%; 3: 70.36%; 4: 1.914%; 5: -39.19%; 6: -35.58%; 7: 94.8%

Value (% Inhibition, P. falciparum stage V gametocytes) for record COc1ccc(Nc2nccc(-c3ccc4c(-c5ccsc5)cnc(N)c4c3)n2)cc1 = 9.815%
